experiment: Tumor uptake and retention of ^123I-Compound B in B16 melanoma bearing mice; type: in vivo; conditions: mouse, 5 h
quantity: tissue uptake at 5 h
Please format your answer as a value with the unit trailing.

Measured tissue uptake at 5 h of CCN(CC)CCNC(=O)c1cc(I)c(NC(=O)c2ccc3c(c2)OCO3)cc1OC : 22.7 %ID/g

* * *

experiment: Tumor uptake and retention of ^123I-Compound B in B16 melanoma bearing mice; type: in vivo; details: mouse, 1 h
quantity: tissue uptake at 1 h (%ID/g)
Answers are plain numbers, in %ID/g.

The reported value for CCN(CC)CCNC(=O)c1cc(I)c(NC(=O)c2ccc3c(c2)OCO3)cc1OC in terms of tissue uptake at 1 h is 14.8
